Reference source: paper PMC4167698

# Tested on: THP-1 cells
# Method description: MTS cell proliferation assay, THP-1
# Assay type: cell-based, human
# Measurement setup: Homo sapiens; THP-1, 24 h, MTS
Measured endpoint: EC50

INSERT INTO measurements (compound, measured_endpoint, test_result) VALUES
  ('O=C(CCc1ccc(O)cc1)c1c(O)cc(O)cc1O[C@@H]1O[C@H](CO)[C@@H](O)[C@H](O)[C@H]1O [Phloridzin, phloretin 2′-O-glucoside]', 'EC50', '> 100 µM'),
  ('CCCCCCCCCCCCCCCCCC(=O)O', 'EC50', '> 100 µM'),
  ('COc1cccc2c1C(=O)c1c(O)c3c(c(O)c1C2=O)C[C@@](O)(C(C)=O)C[C@@H]3O[C@H]1C[C@H](N)[C@H](O)[C@H](C)O1', 'EC50', '0.02 µM');

Shift focus to the following entry.
Incoming: Output measured EC50 for this item: `CC/C=C\C/C=C\C/C=C\C/C=C\C/C=C\CCCC(=O)O`
Outgoing: > 100 µM
